Kindly state pIC50 for each of the entries shown.
target_system: human orexin-2 receptor (Homo sapiens, UniProt O43614)
Construct: expressed in transfected cells; host or cells: CHO cells (G418 selection)
Sequence (O43614 1-444): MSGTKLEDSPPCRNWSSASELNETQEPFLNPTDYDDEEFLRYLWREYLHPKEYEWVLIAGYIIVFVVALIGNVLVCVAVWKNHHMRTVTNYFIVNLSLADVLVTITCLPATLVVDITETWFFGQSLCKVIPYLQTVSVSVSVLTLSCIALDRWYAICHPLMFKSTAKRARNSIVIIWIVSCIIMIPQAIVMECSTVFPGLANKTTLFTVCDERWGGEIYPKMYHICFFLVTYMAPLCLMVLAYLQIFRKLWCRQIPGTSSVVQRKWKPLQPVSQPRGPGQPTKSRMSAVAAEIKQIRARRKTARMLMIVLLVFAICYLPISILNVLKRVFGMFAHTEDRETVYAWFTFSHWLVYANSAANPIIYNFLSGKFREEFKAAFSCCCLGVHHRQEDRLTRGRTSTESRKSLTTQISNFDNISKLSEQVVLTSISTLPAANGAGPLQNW
assay_remarks: FLIPR intracellular calcium assay, orexin receptor antagonistic activity, CHO cells expressing human orexin-2 receptor
Assay type: cell-based
measurement_context: measured with FLIPR 2, 3 nM orexin-A as agonist, read-out: OX2 IC50
Answers are plain numbers, as −log10 of the molar value.

Example compounds with recorded pIC50:
{"compound": "Cc1ccc(-c2sc(-c3ccccc3)nc2C(=O)N2CCCC[C@H]2CNC(=O)c2c(C)nc3sccn23)cc1 [Example 38]", "pIC50": 8.10}
{"compound": "Cc1cccc(-c2nc(C(=O)N3CCC[C@H]3CNC(=O)c3c(C)nc4sccn34)c(-c3ccc(F)cc3)s2)c1 [Example 45]", "pIC50": 7.92}
{"compound": "Cc1nc2sccn2c1C(=O)NC[C@@H]1CCCCN1C(=O)c1nc(-c2ccc(F)cc2)sc1-c1ccc(F)cc1 [Example 3]", "pIC50": 7.62}

Item COc1cccc(-c2nc(C(=O)N3CCCC[C@H]3CNC(=O)c3c(C)nc4sccn34)c(-c3ccc(F)cc3)s2)c1 [Example 5] with human orexin-2 receptor (Homo sapiens, UniProt O43614) - pIC50?
8.15

----------
target_system: human orexin-1 receptor (Homo sapiens)
Construct: expressed in transfected cells; host or cells: CHO cells (G418 selection)
Sequence (O43613 whole entry): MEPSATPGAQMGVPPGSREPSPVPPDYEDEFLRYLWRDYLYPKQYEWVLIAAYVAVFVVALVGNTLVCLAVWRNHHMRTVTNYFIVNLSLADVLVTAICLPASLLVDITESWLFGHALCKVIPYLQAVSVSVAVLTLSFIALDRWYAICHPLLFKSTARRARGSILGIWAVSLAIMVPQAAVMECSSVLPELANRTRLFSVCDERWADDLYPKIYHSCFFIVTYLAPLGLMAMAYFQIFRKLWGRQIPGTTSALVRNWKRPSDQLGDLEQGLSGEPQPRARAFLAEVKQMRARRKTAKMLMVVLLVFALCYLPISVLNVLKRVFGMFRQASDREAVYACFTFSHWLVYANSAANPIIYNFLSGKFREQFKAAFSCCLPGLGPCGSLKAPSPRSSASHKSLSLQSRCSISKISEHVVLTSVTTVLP
assay_remarks: FLIPR intracellular calcium assay, orexin receptor antagonistic activity, CHO cells expressing human orexin-1 receptor
Format: cell-based
measurement_context: marked with *: measured with FLIPR Tetra, 3 nM orexin-A as agonist, read-out: OX1 IC50
Provide the reported pIC50 of each item.
One number for each entry, as −log10 of the molar value.

Look over these answered cases.
{"given_smiles": "O=C(NC[C@@H]1CCCCN1C(=O)c1nc(-c2ccccc2)sc1-c1ccccc1F)c1cccc2c1CCO2", "target_system": "human orexin-1 receptor (Homo sapiens)", "pIC50": 7.70}
{"given_smiles": "Cn1nc(C(=O)NC[C@@H]2CCCN2C(=O)c2nc(-c3cccnc3)sc2-c2cccc(Cl)c2)c2ccccc21", "target_system": "human orexin-1 receptor (Homo sapiens)", "pIC50": 8.05}

Consider the additional compound presented here.
// pIC50 lookup, key: Cn1cc(C(=O)NC[C@@H]2CCCCN2C(=O)c2nc(-c3ccccc3)sc2-c2ccccc2F)c2ccccc21
8.00
